The reported numbers originate from ChEMBL document CHEMBL5727469.

# experimental target: ATP-sensitive inward rectifier potassium channel 1 (Homo sapiens, UniProt P48048)
# Sequence (P48048 whole entry): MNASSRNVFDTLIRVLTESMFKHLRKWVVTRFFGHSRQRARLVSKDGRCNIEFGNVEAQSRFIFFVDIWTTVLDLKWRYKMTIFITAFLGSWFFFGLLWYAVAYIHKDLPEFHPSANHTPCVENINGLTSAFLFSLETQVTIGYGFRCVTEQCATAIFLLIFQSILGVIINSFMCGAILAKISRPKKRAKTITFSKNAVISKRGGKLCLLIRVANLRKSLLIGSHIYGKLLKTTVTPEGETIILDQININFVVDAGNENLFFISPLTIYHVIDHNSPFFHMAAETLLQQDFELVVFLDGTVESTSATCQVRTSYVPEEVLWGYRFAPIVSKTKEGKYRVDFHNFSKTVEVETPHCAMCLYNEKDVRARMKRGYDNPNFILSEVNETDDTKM
# protocol description: Thallium Flux Assay: 1. Seed HEK-hKir1.1 cells (50 μl at 20,000 cells/well) in 384-well PDL coated Microplates2. Allow cells to adhere overnight in humidified 37° C./10% CO2 incubator3. Completely remove cell growth media from microplate and replace with 25 μl loading buffer4. Incubate Microplate at room temperature, protected form light, for 90 min5. Remove loading buffer and replace with 25 μl 1× Assay Buffer±test compound.6. Incubate microplate at room temperature, protected from light, for 30 min7. At FLIPR-Tetra 384: Add stimulant (Thallium/Potassium) solution to microplate and monitor fluorescence. Excitation=400 nm, Emission=460 & 580 nm. Collect data for ˜10 min.Data Calculation—The fluorescence intensity of wells containing 3 μM of a standard control ROMK inhibitor of the present invention is used to define the ROMK-sensitive component of thallium flux. Fluorescence in the presence of test compounds is normalized to control values to provide % fluorescence change. IC50 values represent the concentration of compound that inhibits 50% of the ROMK thallium flux signal.
property: pIC50
Scale explanation: pIC50 corresponds to minus log10 of a concentration expressed in moles per litre.

CC1=C(N2CCOC3(CCN(CC(O)c4ccc(-n5cnnn5)cc4C)CC3)C2)CCC1=O (stereo not given); 6.55
CC1=C(N2CCOC3(CCN(C[C@H](O)c4ccc5c(c4C)COC5=O)CC3)C2)CCC1=O; 6.10
CC1=C(N2CCOC3(CCN(C[C@H](O)c4ccc(-n5cnnn5)nc4)CC3)C2)CCC1=O; 6.78

Lookup: Bench note: what pIC50 did CC1=C(N2CCC3(CCN(CC(O)c4ccc(-n5cnnn5)nc4C)CC3)C2=O)CCC1=O (single isomer, unassigned) show?
Found: 6.07

Lookup: Bench note: what pIC50 did CC1=C(N2CCOC3(CCN(CC(O)c4ccc(-n5cnnn5)nc4C)CC3)C2)CCC1=O (stereo not given) show?
Found: 6.80
